- System: A549 cells
- METHOD DESCRIPTION: MTT assay, IC50 and MTC
- ASSAY CONTEXT: A549 cells, MTT, 24 h of treatment
Response field label: string, one of fulfilled (MTC (maximum tolerated concentration) strictly below 0.09 mM) or not fulfilled.

# COMPOUND, ASSIGNED LABEL
records = [
    ("Cl.Cl.Cl.OCCN1CCN(CC(O)CNc2ccccc2)CC1 (stereo not drawn) [Compound 10]", "not fulfilled"),
    ("COc1ccc(NCCCN2CCN(CCO)CC2)cc1.Cl.Cl.Cl [Compound 7]", "not fulfilled"),
    ("COc1ccc2nc3c(c(NCCN4CCNCC4)c2c1)CCCC3.Cl.Cl.Cl [Compound 2]", "fulfilled"),
    ("OCCN1CCN(CC(O)CN2CCN(CCO)CC2)CC1 [Compound 8]", "not fulfilled"),
    ("Cl.Cl.Cl.OCCN1CCN(CCCNc2ccccc2)CC1 [Compound 5]", "fulfilled"),
    ("COc1ccc2nc3c(c(NCCN4CCN(CCO)CC4)c2c1)CCCC3.Cl.Cl.Cl [Compound 3]", "fulfilled"),
    ("Cl.Cl.Cl.OCCN1CCN(CCCNc2cccc3ccccc23)CC1 [Compound 6]", "fulfilled"),
    ("Cc1cc(OCC(O)CN2CCN(CCO)CC2)ccc1Cl.Cl.Cl (stereo not drawn) [Compound 4]", "fulfilled"),
]

====

Each record here notes measured IC50.
- Test system: A549 cells
- METHOD DESCRIPTION: MTT assay, IC50 and MTC
- ASSAY CONTEXT: Homo sapiens, A549, 24 h, read-out: IC50 ± SEM

# GIVEN SMILES, IC50
records = [
    ("OCCN1CCN(CC(O)CN2CCN(CCO)CC2)CC1", "> 25000 µM"),
    ("Cl.Cl.OC(CNc1ccccc1)CNc1ccccc1", "240 µM"),
    ("Cl.Cl.Cl.OCCN1CCN(CCCNc2ccccc2)CC1", "1350 µM"),
    ("COc1ccc(NCCCN2CCN(CCO)CC2)cc1.Cl.Cl.Cl", "2550 µM"),
    ("COc1ccc2nc3c(c(NCCN4CCN(CCO)CC4)c2c1)CCCC3.Cl.Cl.Cl", "140 µM"),
]

====

Each record here notes measured viability at 48 h, 100 µM.
- METHOD DESCRIPTION: WST-1 cytotoxicity test, A2780
- Format: cell-based
- ASSAY CONTEXT: human, A2780 cells; A2780, 100 µM, 48 h, WST-1, mean ± SD of three experiments; read-out: relative viability (%) compared to untreated control
- Protocol: In this study, the cytotoxic effects of nine new compounds (2, 3, 4, 5, 6, 7, 8, 9, 10) were tested on 10 human cell lines (nine cancer and one non-cancer cell line). The cell lines were treated with each compound at concentrations of 10 µM and 100 µM for 48 h. The proliferation capacity of the treated cells was determined by WST-1 test and compared against the proliferation rate of the untreated control cells (100%). […]
PARAMETER MEASURED: viability at 48 h, 100 µM

# COMPOUND, PARAMETER MEASURED, MEAS VALUE
records = [
    ("Cl.Cl.Cl.OCCN1CCN(CCCNc2cccc3ccccc23)CC1", "viability at 48 h, 100 µM", "95%"),
    ("COc1ccc(NCCCN2CCN(CCO)CC2)cc1.Cl.Cl.Cl", "viability at 48 h, 100 µM", "91%"),
    ("COc1ccc2nc3c(c(NCCN4CCN(CCO)CC4)c2c1)CCCC3.Cl.Cl.Cl", "viability at 48 h, 100 µM", "20%"),
    ("Cc1cc(OCC(O)CN2CCN(CCO)CC2)ccc1Cl.Cl.Cl (centres unmarked)", "viability at 48 h, 100 µM", "89%"),
    ("Cl.Cl.OC(CNc1ccccc1)CNc1ccccc1", "viability at 48 h, 100 µM", "64%"),
]

====

- Test system: BALB/c mice
- METHOD DESCRIPTION: Safe use evaluation in vivo (MTD, symptoms, blood biochemistry, histopathology)
- Set-up: key: + (mild); ++ (moderate); +++ (severe)
- ASSAY CONTEXT: female mice, at MTD i.p., animals 1 and 2
PARAMETER MEASURED: prostration

# COMPOUND, PARAMETER MEASURED, MEAS VALUE
data = [
    ("Cl.Cl.Cl.OCCN1CCN(CCCNc2cccc3ccccc23)CC1", "prostration", "+"),
    ("COc1ccc(NCCCN2CCN(CCO)CC2)cc1.Cl.Cl.Cl", "prostration", "+"),
    ("Cl.Cl.Cl.OCCN1CCN(CC(O)CNc2ccccc2)CC1 (stereo not shown)", "prostration", "++"),
    ("Cc1cc(OCC(O)CN2CCN(CCO)CC2)ccc1Cl.Cl.Cl (stereo not shown)", "prostration", "+"),
]

====

- METHOD DESCRIPTION: WST-1 cytotoxicity test, MOLT-4
- Format: cell-based
- ASSAY CONTEXT: human, MOLT-4 cells; MOLT-4, doxorubicin 1 µM cytotoxicity control, WST-1, mean ± SD; read-out: relative viability (%) compared to untreated control
PARAMETER MEASURED: viability at 48 h, 1 µM (%)

# MOLECULE, PARAMETER MEASURED, QUANTITY UNIT, MEAS VALUE
data = [
    ("COc1cccc2c1C(=O)c1c(O)c3c(c(O)c1C2=O)C[C@@](O)(C(=O)CO)C[C@@H]3O[C@H]1C[C@H](N)[C@H](O)[C@H](C)O1 [DOX, doxorubicin, reference compound]", "viability at 48 h, 1 µM", "%", 1),
]

====

Each record here notes measured viability at 48 h, 100 µM.
- METHOD DESCRIPTION: WST-1 cytotoxicity test, A2780
- Type: cell-based
- ASSAY CONTEXT: human, A2780 cells; A2780, 100 µM, 48 h, WST-1, mean ± SD of three experiments; read-out: relative viability (%) compared to untreated control
PARAMETER MEASURED: viability at 48 h, 100 µM (%)

# COMPOUND, QUANTITY UNIT, MEAS VALUE
rows = [
    ("Cl.Cl.Cl.OCCN1CCN(CC(O)CNc2ccccc2)CC1 (stereo not drawn)", "%", 96),
    ("OCCN1CCN(CC(O)CN2CCN(CCO)CC2)CC1", "%", 76),
    ("Cl.Cl.Cl.OCCN1CCN(CCCNc2ccccc2)CC1", "%", 105),
]

====

Each record here notes measured viability at 48 h, 10 µM.
- METHOD DESCRIPTION: WST-1 cytotoxicity test, HeLa
- Type: cell-based
- ASSAY CONTEXT: human, HeLa cells, 10 µM, 48 h, WST-1, mean ± SD of three experiments, read-out: relative viability (%) compared to untreated control

# COMPOUND, viability at 48 h, 10 µM [%]
records = [
    ("Cl.Cl.Cl.OCCN1CCN(CC(O)CNc2ccccc2)CC1 (stereo not drawn) [Compound 10]", 110),
    ("COc1ccc2nc3c(c(NCCN4CCN(CCO)CC4)c2c1)CCCC3.Cl.Cl.Cl [Compound 3]", 104),
    ("COc1ccc(NCCCN2CCN(CCO)CC2)cc1.Cl.Cl.Cl [Compound 7]", 96),
    ("Cl.Cl.Cl.OCCN1CCN(CCCNc2ccccc2)CC1 [Compound 5]", 100),
    ("OCCN1CCN(CC(O)CN2CCN(CCO)CC2)CC1 [Compound 8]", 103),
    ("Cl.Cl.OC(CNc1ccccc1)CNc1ccccc1 [Compound 9]", 99),
    ("Cl.Cl.Cl.OCCN1CCN(CCCNc2cccc3ccccc23)CC1 [Compound 6]", 108),
    ("COc1ccc2nc3c(c(NCCN4CCNCC4)c2c1)CCCC3.Cl.Cl.Cl [Compound 2]", 25),
    ("Cc1cc(OCC(O)CN2CCN(CCO)CC2)ccc1Cl.Cl.Cl (stereo not drawn) [Compound 4]", 106),
]

====

- METHOD DESCRIPTION: WST-1 cytotoxicity test, PANC-1
- Type: cell-based
- ASSAY CONTEXT: human, PANC-1 cells; PANC-1, 10 µM, 48 h, WST-1, mean ± SD of three experiments; read-out: relative viability (%) compared to untreated control
Each record here notes measured viability at 48 h, 10 µM.
PARAMETER MEASURED: viability at 48 h, 10 µM (%)

# COMPOUND, MEAS VALUE
rows = [
    ("Cl.Cl.Cl.OCCN1CCN(CCCNc2ccccc2)CC1 [Compound 5]", 86),
    ("COc1ccc2nc3c(c(NCCN4CCNCC4)c2c1)CCCC3.Cl.Cl.Cl [Compound 2]", 39),
    ("COc1ccc(NCCCN2CCN(CCO)CC2)cc1.Cl.Cl.Cl [Compound 7]", 99),
    ("COc1ccc2nc3c(c(NCCN4CCN(CCO)CC4)c2c1)CCCC3.Cl.Cl.Cl [Compound 3]", 78),
    ("OCCN1CCN(CC(O)CN2CCN(CCO)CC2)CC1 [Compound 8]", 98),
    ("Cl.Cl.OC(CNc1ccccc1)CNc1ccccc1 [Compound 9]", 93),
    ("Cc1cc(OCC(O)CN2CCN(CCO)CC2)ccc1Cl.Cl.Cl (stereo not drawn) [Compound 4]", 97),
    ("Cl.Cl.Cl.OCCN1CCN(CCCNc2cccc3ccccc23)CC1 [Compound 6]", 92),
    ("Cl.Cl.Cl.OCCN1CCN(CC(O)CNc2ccccc2)CC1 (stereo not drawn) [Compound 10]", 95),
]

Cited source: paper PMC7038073
